assay: protein stability index of a GFP-peptide fusion (GPS, HEK-293T) (PSI 1-6); higher = more stable; conditions: treatment: DMSO; c terminus: a fixed tail appended;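 also: 24-mer peptide tiles fused after GFP, lentivirally expressed, FACS-sorted into six equal bins by GFP/DsRed ratio, decoded by Illumina sequencing, PSI is the read-weighted mean bin number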
Listed below: protein stability index values for each entry.
// no unit, no text: just the number

# construct-sequence, protein stability index
data = [
    ("ALKYWKKAMNMRYSDRTNIISKPV [FEM1C]", 2.5),
]

Record request: protein stability index value, item ANETYENNFDNLDFDLDLVPWESD [ATF6]
5.07

Returns the measured protein stability index for the input sequence. Input: EMYQVSRLQHICELFIITQLQSMP [RHOBTB3]
2.21

Looking for the measured protein stability index of IIYKQTKGGVQNFNKDLVQDCGFE [CEP70] , can you help?
1.96

Name the reported protein stability index value associated with the sequence LRKGYLFMYNLVQFLGFSWIFVNL [HACD3]
3.5

Any idea what protein stability index was measured for GPDDSLWDKHACPAYVGPEILSSR [TRIB3] ?
3.56

Dear colleague, I am looking for the recorded protein stability index of the following sequence: TSPYSDPVVSMDLDPQPITDEEEG [PTPRD]
5.63

Consider the sequence shown here: HQGEEEGPLDIWAVVKPGNTKEKI [FBXO34] What is its recorded protein stability index?
4.6

Reported protein stability index, sequence LLEPEEGGRAYQALHCPTGTEYTC [TRIB3] : ____
3.8

Recorded protein stability index of TSCAGNLPSRPPPLLSPLLASRNP [RSPH3] , please.
3.45

I would be grateful if you could share the reported protein stability index for QLAAGRHGDDLKNTKNEISELTRL [KRT71] .
4.58

Fill in: protein stability index of DLEAQMESLKEELLSLKQNHEQEV [KRT33B] is ___
4.95

// returns reported protein stability index for input QPKEPQLTCDSAQKCHSIGETDEV [ZSCAN9]
5.43

protein stability index lookup needed for HRTHTGERPYGCDECEKAYFYMSC [ZNF649] , thanks.
2.68

Quick one: protein stability index of MASVRIREAKEGDCGDILRLIREL [SAT2] ?
3.01

Please report the recorded protein stability index for IFSVTALDPDSKENAQIIYSLAED [PCDHGA10] .
3.1
